# Test target: F508delCFTR (Homo sapiens, UniProt P13569, DEL508-508)
# Construct: expressed in transfected cells; host or cells: CFBE41o- (human lung derived epithelial cell line), doxycycline-inducible expression
# Sequence (P13569 with tags, fused parts or gaps DEL508-508): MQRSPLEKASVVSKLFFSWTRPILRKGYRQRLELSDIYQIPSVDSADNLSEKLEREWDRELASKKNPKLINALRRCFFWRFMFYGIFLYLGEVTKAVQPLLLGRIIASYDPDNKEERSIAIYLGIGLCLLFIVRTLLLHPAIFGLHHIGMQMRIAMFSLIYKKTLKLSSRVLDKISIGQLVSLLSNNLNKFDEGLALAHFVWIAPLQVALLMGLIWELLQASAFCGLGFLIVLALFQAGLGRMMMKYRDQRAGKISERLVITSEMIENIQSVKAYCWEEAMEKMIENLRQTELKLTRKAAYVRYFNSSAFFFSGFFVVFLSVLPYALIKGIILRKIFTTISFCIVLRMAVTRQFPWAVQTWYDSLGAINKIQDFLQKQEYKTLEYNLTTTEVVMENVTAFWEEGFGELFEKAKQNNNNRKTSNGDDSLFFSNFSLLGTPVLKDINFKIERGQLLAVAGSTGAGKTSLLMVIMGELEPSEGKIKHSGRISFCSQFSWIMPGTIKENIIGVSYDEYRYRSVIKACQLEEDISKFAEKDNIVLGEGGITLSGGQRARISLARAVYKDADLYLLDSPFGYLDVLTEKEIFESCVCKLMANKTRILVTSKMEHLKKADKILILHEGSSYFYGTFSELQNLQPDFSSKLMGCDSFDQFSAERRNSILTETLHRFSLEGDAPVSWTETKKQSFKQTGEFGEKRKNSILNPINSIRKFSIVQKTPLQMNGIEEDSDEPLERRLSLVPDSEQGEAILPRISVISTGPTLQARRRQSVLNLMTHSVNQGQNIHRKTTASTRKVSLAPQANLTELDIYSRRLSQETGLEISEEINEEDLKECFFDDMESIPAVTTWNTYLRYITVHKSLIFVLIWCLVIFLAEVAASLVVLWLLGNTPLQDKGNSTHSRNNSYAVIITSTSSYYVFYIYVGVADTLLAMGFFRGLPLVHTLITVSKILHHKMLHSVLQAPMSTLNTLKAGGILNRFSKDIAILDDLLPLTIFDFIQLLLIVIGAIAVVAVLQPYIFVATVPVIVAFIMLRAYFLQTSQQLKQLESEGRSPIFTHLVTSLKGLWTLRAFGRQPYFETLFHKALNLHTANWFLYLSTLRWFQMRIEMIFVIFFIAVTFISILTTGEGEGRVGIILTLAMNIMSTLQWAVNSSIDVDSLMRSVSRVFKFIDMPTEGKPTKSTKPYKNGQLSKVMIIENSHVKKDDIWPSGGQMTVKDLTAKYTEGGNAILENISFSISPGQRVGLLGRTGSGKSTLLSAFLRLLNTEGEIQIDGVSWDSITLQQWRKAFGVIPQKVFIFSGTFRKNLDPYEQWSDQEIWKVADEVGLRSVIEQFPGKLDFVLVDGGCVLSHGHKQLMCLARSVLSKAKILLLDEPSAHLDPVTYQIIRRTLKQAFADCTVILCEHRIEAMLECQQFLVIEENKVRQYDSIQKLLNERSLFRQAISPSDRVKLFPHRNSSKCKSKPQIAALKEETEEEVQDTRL
# Test protocol: Cell Surface Expression-Horse Radish Peroxidase (CSE-HRP) assay;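 on Maximum % activity (without co-corrector): % of on-plate positive control (2 µM of the co-corrector compound) after DMSO subtraction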
# Assay type: cell-based
# Condition info: CFBE41o-F508delCFTR-HRP cells; without co-corrector; normalized to on-plate positive control; highest concentration 20 μM
# Source text: Cell Surface Expression-Horse Radish Peroxidase (CSE-HRP) Assay […] The maximum % activity achieved for the test compound either without or with a co-corrector at any tested concentration is presented in Table 1 along with the respective EC50's calculated using the following general sigmoidal curve with variable Hill slope equation (described as Model 42 in the Accelrys® Assay Explorer v3.3 software): y=(a−d)/(1+(x/c)^b)+d […]
Measured property: Maximum % activity (without co-corrector)

Observe how each entry below is paired with its result.
| Compound | Result |
| --- | --- |
| CC(C)Oc1ncccc1[C@H]1[C@@H](OCc2coc3ccc(C(F)(F)F)cc23)[C@H](C(C)(C)C)[C@@H](C(=O)O)N1C(=O)C1CCCCC1 [Example 279] | ++ (≥100 and <200) |
| COc1ncc(C(F)(F)F)cc1CO[C@H]1[C@H](C(C)(C)C)[C@@H](C(=O)O)N(C(=O)[C@@H]2CCCCO2)[C@H]1c1cccc(Cl)c1 [Example 123] | ++ (≥100 and <200) |
| COc1ncc(C(F)(F)F)cc1CO[C@H]1[C@H](C(C)(C)C)[C@@H](C(=O)O)N(C(=O)OC(C)C)[C@H]1c1ccccc1C1CC1 [Example 92] | ++ (≥100 and <200) |
| COc1ncc(C2CCC2)cc1CO[C@H]1[C@H](C(C)(C)C)[C@@H](C(=O)O)N(C(=O)[C@@H]2CCCCO2)[C@H]1c1cc(Cl)ccc1C [Example 229] | + (<100) |

Read the next record carefully.
Query: Give its Maximum % activity (without co-corrector) value. Item: COc1ncc(C(F)(F)F)cc1CO[C@H]1[C@H](C(C)(C)C)[C@@H](C(=O)O)N(C(=O)[C@@H]2CCCO2)[C@H]1c1cccc(C(C)(C)C)c1 [Example 121]
Response: + (<100)

---

This listing pairs compounds with measured EC50.
# Test target: F508delCFTR (Homo sapiens, UniProt P13569, DEL508-508)
# Construct: expressed in transfected cells; host or cells: CFBE41o- (human lung derived epithelial cell line), doxycycline-inducible expression
# Test protocol: Cell Surface Expression-Horse Radish Peroxidase (CSE-HRP) assay
# Assay type: cell-based
# Condition info: CFBE41o-F508delCFTR-HRP cells; with co-corrector (2 μM of 3-[(2R,4R)-4-({[1-(2,2-difluoro-1,3-benzodioxol-5-yl)cyclopropyl]carbonyl}amino)-7-methoxy-3,4-dihydro-2H-chromen-2-yl]benzoic acid); read-out: EC50 (with co-corrector)

Observe how each entry below is paired with its result.
| Query smiles | EC50 |
| --- | --- |
| COc1cc(C(F)(F)F)ccc1CO[C@H]1[C@H](C(C)(C)C)[C@@H](C(=O)O)N(C(=O)[C@H]2CCC[C@H](OC)C2)[C@H]1c1ccccc1 | 1000 to 10000 nM |
| COc1ncc(C(F)(F)F)cc1CO[C@H]1[C@H](C(C)(C)C)[C@@H](C(=O)O)N(C(=O)[C@@H]2CCCCO2)[C@H]1c1cc(I)ccc1C | < 1000 nM |
| COc1ccc(C(C)(C)C#N)cc1CO[C@H]1[C@H](C(C)(C)C)[C@@H](C(=O)O)N(C(=O)[C@@H]2CCCCO2)[C@H]1c1ccccc1C | < 1000 nM |

Query: Give its EC50 value. Item: COc1ncc(C(C)(C)C)cc1CO[C@H]1[C@H](C(C)(C)C)[C@@H](C(=O)O)N(C(=O)OC(C)C)[C@H]1c1cccc(Cl)c1
Response: 1000 to 10000 nM

Query: Also check COc1nc(C(C)(C)C)ccc1CO[C@H]1[C@H](C(C)(C)C)[C@@H](C(=O)O)N(C(=O)OC(C)C)[C@H]1c1ccccc1
Response: 1000 to 10000 nM
